ASSAY_METHOD_TEXT: Efflux ratio of permeability from basolateral to apical side over apical to basolateral side in human Caco2 cells at 100 uM after 30 mins by UV spectroscopy
Assay type: ADME, cell-based
STUDY_CONDITIONS: Caco-2
Entries are grouped by efflux ratio at 0.5 h, 100 µM into these classes: lo = under 3, med = from 3 up to 4, hi = 4 and over

MOLECULE_SMILES: COc1ccc(COc2ccccc2CCc2cc(OC)c(OC)c(OC)c2)cc1OC
LABEL: med
//
MOLECULE_SMILES: COc1ccc(CCc2ccccc2OCc2ccc(OC)c(OC)c2)cc1OC
LABEL: lo
//
MOLECULE_SMILES: COc1cc2c(cc1OC)CN(CCc1ccc(NC(=O)c3cc(OC)c(OC)cc3NC(=O)c3cnc4ccccc4c3)cc1)CC2
LABEL: hi
//
MOLECULE_SMILES: COc1cccc(CCc2ccccc2OCc2cc(OC)c(OC)c(OC)c2)c1OC
LABEL: med
//
MOLECULE_SMILES: COc1cccc(COc2ccccc2CCc2cc(OC)c(OC)c(OC)c2)c1OC
LABEL: med
//
MOLECULE_SMILES: COc1cccc(CCc2ccccc2OCc2cc(OC)c(OC)c(OC)c2)c1
LABEL: med

* * *

EXPERIMENTAL_TARGET: ATP-dependent translocase ABCB1 (Homo sapiens)
Sequence (P08183 whole entry): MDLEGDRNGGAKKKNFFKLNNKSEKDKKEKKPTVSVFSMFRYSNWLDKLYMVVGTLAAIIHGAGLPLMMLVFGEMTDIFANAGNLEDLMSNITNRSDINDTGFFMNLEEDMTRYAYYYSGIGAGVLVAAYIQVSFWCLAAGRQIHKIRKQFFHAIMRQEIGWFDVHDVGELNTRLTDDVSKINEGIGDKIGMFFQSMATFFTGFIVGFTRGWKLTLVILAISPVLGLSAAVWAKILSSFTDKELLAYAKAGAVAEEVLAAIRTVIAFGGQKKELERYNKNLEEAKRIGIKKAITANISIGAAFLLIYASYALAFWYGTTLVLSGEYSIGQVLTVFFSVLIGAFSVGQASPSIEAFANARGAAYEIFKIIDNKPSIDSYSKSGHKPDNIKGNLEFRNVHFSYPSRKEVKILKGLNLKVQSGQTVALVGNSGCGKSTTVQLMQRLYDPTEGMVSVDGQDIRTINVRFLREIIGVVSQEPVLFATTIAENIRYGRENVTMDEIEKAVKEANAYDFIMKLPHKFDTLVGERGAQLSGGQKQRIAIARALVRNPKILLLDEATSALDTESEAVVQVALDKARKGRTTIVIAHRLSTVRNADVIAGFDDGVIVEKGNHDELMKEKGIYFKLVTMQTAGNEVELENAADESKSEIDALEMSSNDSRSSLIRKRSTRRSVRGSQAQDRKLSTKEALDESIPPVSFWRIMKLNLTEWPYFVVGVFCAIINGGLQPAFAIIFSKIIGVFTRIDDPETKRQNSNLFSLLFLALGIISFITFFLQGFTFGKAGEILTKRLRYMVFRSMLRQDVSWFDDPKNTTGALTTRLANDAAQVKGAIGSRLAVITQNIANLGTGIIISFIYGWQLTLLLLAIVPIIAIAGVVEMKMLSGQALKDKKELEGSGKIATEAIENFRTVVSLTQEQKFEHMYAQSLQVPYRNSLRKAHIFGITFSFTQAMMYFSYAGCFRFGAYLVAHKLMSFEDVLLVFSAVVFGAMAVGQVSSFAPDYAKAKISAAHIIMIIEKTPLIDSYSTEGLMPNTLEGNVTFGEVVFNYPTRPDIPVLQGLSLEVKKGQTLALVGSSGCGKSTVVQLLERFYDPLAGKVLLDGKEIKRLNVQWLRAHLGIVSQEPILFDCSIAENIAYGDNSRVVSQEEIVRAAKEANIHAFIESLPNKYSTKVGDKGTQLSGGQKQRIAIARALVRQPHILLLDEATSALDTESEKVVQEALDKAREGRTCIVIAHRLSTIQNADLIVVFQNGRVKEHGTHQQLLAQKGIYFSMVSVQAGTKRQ
ASSAY_METHOD_TEXT: Activation of ATPase activity of MDR1 (unknown origin) expressed in MDCK cells assessed as reduction of reduction of ATP level at 100 uM after 2 hrs by luminescence/ATPlite assay
Assay type: cell-based

MOLECULE: COc1cccc(CCc2ccccc2OCc2cc(OC)c(OC)c(OC)c2)c1
Activity: Not Active
//
MOLECULE: COc1cccc(CCc2ccccc2OCc2cc(OC)c(OC)c(OC)c2)c1OC
Activity: Active
//
MOLECULE: COc1cccc(CCc2ccccc2NC(=O)c2cccnc2)c1
Activity: Active
//
MOLECULE: COc1cc(CCc2ccccc2OCc2cc(OC)c(OC)c(OC)c2)cc(OC)c1OC
Activity: Active
//
MOLECULE: COc1cccc(CCc2ccccc2OCc2ncccn2)c1
Activity: Active
//
MOLECULE: COc1cc2c(cc1OC)CN(CCc1ccc(NC(=O)c3cc(OC)c(OC)cc3NC(=O)c3cnc4ccccc4c3)cc1)CC2 [TARIQUIDAR]
Activity: 30%
//
MOLECULE: COc1cccc(CCc2ccccc2OCc2cccs2)c1
Activity: Active
//
MOLECULE: COc1cccc(CCc2ccccc2OCc2ccc3c(c2)OCO3)c1
Activity: Active
//
MOLECULE: COc1ccc(CCc2ccccc2OCc2ccc(OC)c(OC)c2)cc1OC
Activity: Not Active
//
MOLECULE: COc1cccc(CCc2ccccc2NC(=O)c2cccc(OC)c2)c1
Activity: Active
//
MOLECULE: COc1cccc(CCc2ccccc2NCc2ccncc2)c1
Activity: Active
//
MOLECULE: COc1cc(COc2ccccc2CCc2cc(OC)c(OC)c(OC)c2)cc(OC)c1
Activity: Not Active
//
MOLECULE: COc1ccc(COc2ccccc2CCc2cc(OC)c(OC)c(OC)c2)cc1OC
Activity: Active
//
MOLECULE: COc1cccc(COc2ccccc2CCc2cc(OC)c(OC)c(OC)c2)c1OC
Activity: Active

* * *

EXPERIMENTAL_TARGET: ATP-dependent translocase ABCB1 (Homo sapiens)
ASSAY_METHOD_TEXT: Inhibition of P-glycoprotein (unknown origin) expressed in MDCK cells assessed as reduction of calcein-AM transport after 30 mins by fluorescence assay
Listing of recorded EC50 by entry.

MOLECULE_SMILES: COc1cccc(CCc2ccccc2OCc2cccs2)c1
COMPARATIVE_SIGN: >
EC50 (µM): 100

MOLECULE_SMILES: Clc1ccc(COc2ccccc2CCc2ccccc2)c(Cl)c1
COMPARATIVE_SIGN: >
EC50 (µM): 100

MOLECULE_SMILES: COc1cccc(CCc2ccccc2NC(=O)c2cccc(OC)c2)c1
COMPARATIVE_SIGN: =
EC50 (µM): 10.9

MOLECULE_SMILES: COc1cccc(CCc2ccccc2OCc2cc(OC)c(OC)c(OC)c2)c1
COMPARATIVE_SIGN: =
EC50 (µM): 3.1

MOLECULE_SMILES: COc1ccc(COc2ccccc2CCc2cc(OC)c(OC)c(OC)c2)cc1OC
COMPARATIVE_SIGN: =
EC50 (µM): 0.9

MOLECULE_SMILES: COc1cccc(CCc2ccccc2NC(=O)c2cccnc2)c1
COMPARATIVE_SIGN: =
EC50 (µM): 43.7

MOLECULE_SMILES: COc1cccc(CCc2ccccc2OCc2ccc3c(c2)OCO3)c1
COMPARATIVE_SIGN: >
EC50 (µM): 100

MOLECULE_SMILES: COc1cc(COc2ccccc2CCc2cc(OC)c(OC)c(OC)c2)cc(OC)c1
COMPARATIVE_SIGN: =
EC50 (µM): 1.3

MOLECULE_SMILES: COc1cccc(CCc2ccccc2NCc2ccncc2)c1
COMPARATIVE_SIGN: =
EC50 (µM): 11.5

MOLECULE_SMILES: COc1cccc(CCc2ccccc2OCc2cc(OC)c(OC)c(OC)c2)c1OC
COMPARATIVE_SIGN: =
EC50 (µM): 0.3

MOLECULE_SMILES: COc1ccc(CCc2ccccc2OCc2ccc(OC)c(OC)c2)cc1OC
COMPARATIVE_SIGN: =
EC50 (µM): 2.1

MOLECULE_SMILES: COc1cc(CCc2ccccc2OCc2cc(OC)c(OC)c(OC)c2)cc(OC)c1OC
COMPARATIVE_SIGN: =
EC50 (µM): 0.0071

MOLECULE_SMILES: COc1cccc(CCc2ccccc2OCc2ncccn2)c1
COMPARATIVE_SIGN: =
EC50 (µM): 32.5

MOLECULE_SMILES: COc1cccc(COc2ccccc2CCc2cc(OC)c(OC)c(OC)c2)c1OC
COMPARATIVE_SIGN: =
EC50 (µM): 3.2

* * *

ASSAY_METHOD_TEXT: Cytotoxicity against MDR1 expressing MDCK cells assessed as cell viability at 1 uM after 48 hrs by MTT assay
Assay type: ADME, cell-based, Canis lupus familiaris
STUDY_CONDITIONS: dog, read-out: Activity
MEASURE: viability at 48 h, 1 µM (%)

MOLECULE_SMILES: COc1cc(CCc2ccccc2OCc2cc(OC)c(OC)c(OC)c2)cc(OC)c1OC
UNIT_OF_MEASURE: %
MEASUREMENT: 40

* * *

We begin with a simple list: items and their reported efflux ratio at 0.5 h, 100 µM.
ASSAY_METHOD_TEXT: Efflux ratio of permeability from basolateral to apical side over apical to basolateral side in human Caco2 cells at 100 uM after 30 mins by UV spectroscopy
Assay type: ADME, cell-based
STUDY_CONDITIONS: Caco-2

MOLECULE_SMILES: COc1cccc(CCc2ccccc2NCc2ccncc2)c1
efflux ratio at 0.5 h, 100 µM: 3
//
MOLECULE_SMILES: COc1cccc(CCc2ccccc2NC(=O)c2cccc(OC)c2)c1
efflux ratio at 0.5 h, 100 µM: 4.1
//
MOLECULE_SMILES: COc1cccc(CCc2ccccc2OCc2ncccn2)c1
efflux ratio at 0.5 h, 100 µM: 2.91
//
MOLECULE_SMILES: COc1cc(CCc2ccccc2OCc2cc(OC)c(OC)c(OC)c2)cc(OC)c1OC
efflux ratio at 0.5 h, 100 µM: 3.96
